measurement-target: T1, Hu41BB N&E.4 (human, UniProt Q07011 18-255)
T1 construct: Human-to-dog mutant of the human 4-1BB extracellular domain, expressed on transduced 300-19 cells
T1 chain: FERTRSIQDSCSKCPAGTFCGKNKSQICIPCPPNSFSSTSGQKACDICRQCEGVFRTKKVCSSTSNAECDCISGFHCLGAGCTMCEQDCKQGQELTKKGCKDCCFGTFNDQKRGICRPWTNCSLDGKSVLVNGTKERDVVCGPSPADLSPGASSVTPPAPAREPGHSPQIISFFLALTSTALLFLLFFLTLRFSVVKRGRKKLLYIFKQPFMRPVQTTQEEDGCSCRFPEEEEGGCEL
assay-summary: FACS, 100 nM antibody, transduced 300-19 cell pools

[
  {
    "binder": "MOR-7483 (IgG1) (antibody, V domains shown, Human IgG1 format, lambda light chain; also called 7483_G1) VH: QVQLVQSGAEVKKPGESLKISCKGSGYSFSTYWISWVRQMPGKGLEWMGKIYPGDSYTNYSPSFQGQVTISADKSISTAYLQWSSLKASDTAMYYCARGYGIFDYWGQGTLVTVSS VL: DIELTQPPSVSVAPGQTARISCSGDNIGDQYAHWYQQKPGQAPVVVIYQDKNRPSGIPERFSGSNSGNTATLTISGTQAEDEADYYCSTYTFVGFTTVFGGGTKLTVL",
    "binding result": "binds"
  },
  {
    "binder": "MOR-7480 (IgG1) (antibody, V domains shown, Human IgG1 format, lambda light chain) VH: QVQLVQSGAEVKKPGESLKISCKGSGYSFSTYWISWVRQMPGKGLEWMGKIYPGDSYTNYSPSFQGQVTISADKSISTAYLQWSSLKASDTAMYYCARGYGIFDYWGQGTLVTVSS VL: DIELTQPPSVSVAPGQTARISCSGDNIGDQYAHWYQQKPGQAPVVVIYQDKNRPSGIPERFSGSNSGNTATLTISGTQAEDEADYYCATYTGFGSLAVFGGGTKLTVL",
    "binding result": "binds"
  },
  {
    "binder": "MOR-7483 (IgG2) (antibody, V domains shown, also called 7483_G2) VH: QVQLVQSGAEVKKPGESLKISCKGSGYSFSTYWISWVRQMPGKGLEWMGKIYPGDSYTNYSPSFQGQVTISADKSISTAYLQWSSLKASDTAMYYCARGYGIFDYWGQGTLVTVSS VL: DIELTQPPSVSVAPGQTARISCSGDNIGDQYAHWYQQKPGQAPVVVIYQDKNRPSGIPERFSGSNSGNTATLTISGTQAEDEADYYCSTYTFVGFTTVFGGGTKLTVLG",
    "binding result": "binds"
  },
  {
    "binder": "MOR-7480.2 (IgG1) (antibody, V domains shown, Human IgG1 format) VH: EVQLVQSGAEVKKPGESLRISCKGSGYSFSTYWISWVRQMPGKGLEWMGKIYPGDSYTNYSPSFQGQVTISADKSISTAYLQWSSLKASDTAMYYCARGYGIFDYWGQGTLVTVSS VL: SYELTQPPSVSVSPGQTASITCSGDNIGDQYAHWYQQKPGQSPVVVIYQDKNRPSGIPERFSGSNSGNTATLTISGTQAMDEADYYCATYTGFGSLAVFGGGTKLTVL",
    "binding result": "binds"
  }
]
